# system_tested: acid ceramidase (Homo sapiens, UniProt Q13510)
# Construct: Cell lysates overexpressing acid ceramidase were used as the enzyme source; expressed in transfected cells
# Sequence (Q13510 22-395): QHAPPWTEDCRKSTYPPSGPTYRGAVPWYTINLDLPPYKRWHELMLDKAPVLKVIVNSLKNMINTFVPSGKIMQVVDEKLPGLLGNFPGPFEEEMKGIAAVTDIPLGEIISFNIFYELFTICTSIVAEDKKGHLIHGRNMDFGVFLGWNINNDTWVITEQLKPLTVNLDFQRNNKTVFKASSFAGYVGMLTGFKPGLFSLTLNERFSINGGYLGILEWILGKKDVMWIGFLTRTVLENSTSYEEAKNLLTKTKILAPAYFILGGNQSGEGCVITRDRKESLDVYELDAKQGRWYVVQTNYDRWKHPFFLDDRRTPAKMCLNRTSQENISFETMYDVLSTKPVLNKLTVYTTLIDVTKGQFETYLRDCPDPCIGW
# test_protocol: Acid ceramidase inhibition, biochemical fluorescent assay with cell lysates overexpressing acid ceramidase, substrate Rbm14-12
# study_conditions: substrate Rbm14-12 6.3 μM, pH 4.5, 1 hr preincubation at RT
Below, each entry is listed alongside its reported IC50.

INSERT INTO results (molecule, val) VALUES
  ('CN1CCC(c2cc(C(F)(F)F)cc3c2ncn3C(=O)NCCc2ccccc2)CC1', '< 200 nM');

What does the data say about its IC50? Entry: CC(C)CNC(=O)n1cnc2cc(C(F)(F)F)c(-c3cncnc3)cc21 [Example 77b]
< 200 nM

What does the data say about its IC50? Entry: CN1CC2(CCN(c3cccc4c3ncn4C(=O)NCCOc3ccccc3)CC2)C1
< 200 nM

What does the data say about its IC50? Entry: CCCCNC(=O)n1c(=O)n(C)c2nc(-c3cncnc3)ccc21
200 to 1000 nM

What does the data say about its IC50? Entry: O=C(NCc1ccccc1)n1cnc2ccccc21
< 200 nM

What does the data say about its IC50? Entry: O=C(NCCc1ccccc1)n1c(OCCN2CCOCC2)nc2ccccc21
200 to 1000 nM

What does the data say about its IC50? Entry: CC(C)CNC(=O)n1cnc2cc(-c3cncs3)ccc21 [Example 126a]
< 200 nM

What does the data say about its IC50? Entry: CCOc1nc2c(OC)cccc2n1C(=O)NCCC1CC1
> 1000 nM
